Where these numbers come from: patent US9315494B2

Tested on: IL-23-stimulated STAT-dependent luciferase reporter in Kit225 T cells
method description: Kit225 T cell assay, IL-23 stimulated STAT-dependent luciferase reporter
Format: cell-based, human
condition description: Homo sapiens, KIT225, read-out: IL23 (Kit225 T Cell Inhibition Data)
log10(IC50) overview
Scale: decimal log of IC50, IC50 in nM.

Would you please look over these solved cases?
Problem: Please look up its log10(IC50): CNC(=O)c1cnc(Nc2cc(C)c(F)cn2)cc1Nc1cccc(-c2nc(C)nn2C)c1OC [Example 386]
Result: 1.30

Problem: Follow-up item: CNC(=O)c1cnc(Nc2cc(C)nc(C)n2)cc1Nc1cccc(-c2nc(C)n(CC(F)(F)F)n2)c1OC [Example 370]
Result: 1.48

Further cases:
Problem: Given the molecule CNC(=O)c1cnc(Nc2ccc(F)cn2)cc1Nc1ccc(C#N)cc1S(C)(=O)=O [Example 310] , what is its reported log10(IC50)?
Result: 3.03

Problem: Follow-up entry: CNC(=O)c1cnc(Nc2ccc3ccccc3n2)cc1NC1CCCC1(F)F (stereo not drawn) [Example 294]
Result: 3.80

Problem: Next up: CNC(=O)c1cnc(Nc2cc(C)c(F)cn2)cc1Nc1cccc(-c2ncnn2C)c1OC [Example 385]
Result: 1.85

Problem: How about CNC(=O)c1cnc(Nc2ccc(F)cn2)cc1Nc1ccccc1 [Example 184] ?
Result: 3.90

----------
Tested on: IFNα-stimulated STAT-dependent luciferase reporter in Kit225 T cells
method description: Kit225 T cell assay, IFNα stimulated STAT-dependent luciferase reporter
Assay type: cell-based, human
condition description: Kit225 T cells, 200 U/mL human recombinant IFNα, 5-6 hours, luciferase; read-out: IFNα (Kit225 T Cell Inhibition Data)
Entries annotated with measured IC50
Reply numerically in nM, unit not repeated.

Worked cases, IC50 given:
Problem: # get_value(readout='IC50', item= CNC(=O)c1cnc(Nc2ccc(C(F)(F)F)cn2)cc1Nc1ccc(Cl)cc1OC )
Result: 1880

Problem: Same read-out for CNC(=O)c1cnc(Nc2cc(C(C)=O)ccn2)cc1Nc1ccccc1S(C)(=O)=O ?
Result: 670

Problem: Okay, and CNC(=O)c1cnc(Nc2ccc(N3CCOCC3)cn2)cc1Nc1ccc(F)cc1OC ?
Result: 260

Attention now shifts to the item below.
Problem: Entry CCCNC(=O)c1cccc(Nc2cc(Nc3cc(C)c(F)cn3)ncc2C(=O)NC)c1OC has what IC50?
Result: 30

----------
Tested on: IFNα-stimulated STAT-dependent luciferase reporter in Kit225 T cells
method description: Kit225 T cell assay, IFNα stimulated STAT-dependent luciferase reporter
Assay type: cell-based, human
condition description: Kit225 T cells, 200 U/mL human recombinant IFNα, 5-6 hours, luciferase; read-out: IFNα (Kit225 T Cell Inhibition Data)
measurement type: pIC50
Hey, just a heads up that pIC50 is the negative log base 10 of the concentration in molar.

Problem: Tell me the measured pIC50 of CNC(=O)c1cnc(Nc2ccc(C(F)(F)F)cn2)cc1NC1CCCC1C(N)=O (centres unmarked) [Example 291] , please.
Result: 5.45

Problem: // query: CCn1ncnc1-c1cccc(Nc2cc(Nc3cc(C)nc(C)n3)ncc2C(=O)NC)c1OC [Example 383]
Result: 7.70

Problem: Can you check CNC(=O)c1cnc(Nc2cc(C)nc(C)n2)cc1Nc1cccc(-c2ncnn2CC(F)(F)F)c1OC [Example 381] next?
Result: 7.70

Problem: Item: CNC(=O)c1cnc(Nc2cc(CO)ccn2)cc1Nc1ccccc1C(N)=O [Example 94]
Result: 5.46

Problem: // same read-out, input: CNC(=O)c1cnc(Nc2ccccn2)cc1Nc1ccccc1S(=O)(=O)C(F)(F)F [Example 29]
Result: 5.10

Problem: Param item: CNC(=O)c1cnc(Nc2cc(C(C)(C)C)ncn2)cc1Nc1ccccc1S(C)(=O)=O [Example 421]
Result: 6.32

Problem: // next record CNC(=O)c1cnc(Nc2ccc(C)cn2)cc1Nc1cc(F)cc(F)c1OC [Example 128]
Result: 6.85

Lab note: next molecule to report on.
Problem: pIC50 lookup needed for CNC(=O)c1cnc(Nc2ccc3ccccc3n2)cc1N[C@@H]1CCCC[C@@H]1C(N)=O [Example 286] , thanks.
Result: 5.70
